Target: UniProt:Q02153
Sequence (Q02153 whole entry): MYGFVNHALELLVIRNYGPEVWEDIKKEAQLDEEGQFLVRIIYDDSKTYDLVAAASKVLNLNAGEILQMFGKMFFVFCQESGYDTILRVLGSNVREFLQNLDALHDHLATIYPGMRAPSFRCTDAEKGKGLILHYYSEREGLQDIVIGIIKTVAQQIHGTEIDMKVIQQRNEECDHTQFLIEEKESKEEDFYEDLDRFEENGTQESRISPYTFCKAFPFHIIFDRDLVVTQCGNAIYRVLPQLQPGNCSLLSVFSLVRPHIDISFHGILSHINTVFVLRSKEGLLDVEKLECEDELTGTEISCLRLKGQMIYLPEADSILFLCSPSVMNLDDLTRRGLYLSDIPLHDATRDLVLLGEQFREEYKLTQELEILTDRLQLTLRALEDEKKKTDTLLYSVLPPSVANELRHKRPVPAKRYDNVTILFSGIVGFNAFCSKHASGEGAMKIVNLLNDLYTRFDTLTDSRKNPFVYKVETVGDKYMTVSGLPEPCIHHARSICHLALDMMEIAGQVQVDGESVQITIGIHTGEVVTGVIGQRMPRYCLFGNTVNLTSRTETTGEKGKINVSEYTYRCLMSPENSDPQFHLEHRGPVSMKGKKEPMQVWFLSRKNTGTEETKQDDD
Sequence (Q02108 whole entry partner): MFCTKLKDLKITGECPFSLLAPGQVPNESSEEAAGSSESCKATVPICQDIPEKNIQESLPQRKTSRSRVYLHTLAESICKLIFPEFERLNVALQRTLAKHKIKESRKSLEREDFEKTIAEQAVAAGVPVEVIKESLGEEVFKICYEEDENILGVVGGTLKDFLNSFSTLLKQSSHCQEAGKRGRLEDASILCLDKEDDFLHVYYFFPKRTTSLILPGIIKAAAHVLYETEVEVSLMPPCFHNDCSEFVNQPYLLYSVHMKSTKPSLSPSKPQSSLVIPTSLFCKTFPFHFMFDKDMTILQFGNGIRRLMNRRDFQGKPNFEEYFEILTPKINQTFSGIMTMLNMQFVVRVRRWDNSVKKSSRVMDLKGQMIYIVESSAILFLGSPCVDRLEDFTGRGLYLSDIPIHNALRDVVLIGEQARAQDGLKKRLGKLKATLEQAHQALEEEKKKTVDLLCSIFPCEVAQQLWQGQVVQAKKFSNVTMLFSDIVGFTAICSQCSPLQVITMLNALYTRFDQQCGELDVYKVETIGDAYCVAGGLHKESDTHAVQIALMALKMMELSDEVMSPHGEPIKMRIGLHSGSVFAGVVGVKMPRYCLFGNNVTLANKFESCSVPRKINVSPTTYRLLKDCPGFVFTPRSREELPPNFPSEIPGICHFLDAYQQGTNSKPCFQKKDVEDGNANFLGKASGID
Assay: sGC enzyme assay, fluorescence polarisation of labelled cGMP
Assay type: biochemical
Conditions: human sGC 1 nM, FP assay; concentration able to increase by 5-fold basal cGMP
Experimental: The activity of soluble guanylate cyclase (sGC) was tested in an assay based on measuring the fluorescent polarisation (FP) signal of fluorescently labelled cGMP. FP increased on interaction with an anti-cGMP antibody as the motility of the molecule was reduced. […] After a period of one hour the assay was stopped with the addition of EDTA and after a further hour the assay was read. […]
readout.type: sGC pEC500

Cc1cc(OCCCC(F)(F)F)ccc1COc1ccccc1-c1cccc(-n2ncc(C(=O)O)c2C(F)(F)F)n1 ... 7.47
COCCCOc1ccc(COc2ccccc2-c2cccc(-n3ncc(C(=O)O)c3C(F)(F)F)n2)c(F)c1 ... 7.4
Cc1cc(OCCCC(=O)O)ccc1COc1ccccc1-c1cccc(-n2ncc(C(=O)O)c2C(F)(F)F)n1 ... 6.59
COCCOc1ccc(COc2ccccc2-c2cccc(-n3ncc(C(=O)O)c3C(F)(F)F)n2)cc1 ... 6.6
O=C(O)c1cnn(-c2cccc(-c3ccccc3OCc3ccc(OCCCC(F)(F)F)cc3F)n2)c1C(F)(F)F ... 6.88

Values from patent US20160214956A1
